Test: Neurotoxicity in mice (rotorod ataxia test), i.p.
Conditions: mouse, in vivo, ip, MICE TD50, mice; Table 15
Where a name gives a salt, the structure may show the parent alone.
recorded endpoint: TD50

C[C@H]1Cc2ccccc2[C@H]1N [Example 40, (rac)-cis-2-Methyl-1-aminoindan.HCl] : < 100 mg/kg
C[C@@H]1Cc2ccccc2[C@H]1N [Example 39, (rac)-trans-2-Methyl-1-aminoindan.HCl] : < 100 mg/kg
NC(=O)CNC1CCc2ccccc21 (racemic) [Example 3, (rac)-N-(2-Acetamido)-1-aminoindan.HCl] : 127 mg/kg
CCCC(=O)NC1CCc2ccccc21 (racemic) [Example 11, (rac)-N-Butyryl-1-aminoindan] : < 300 mg/kg
N[C@H]1CCc2ccc(F)cc21 [K, (S)-6-fluoro-1-aminoindan] : < 250 mg/kg
COc1ccc2c(c1OC)CCC2N (racemic) [Example 31, (rac)-4,5-Dimethoxy-1-aminoindan.HCl] : < 100 mg/kg
NC1CCc2ccc(O)cc21 (racemic) [Example 34, (rac)-6-Hydroxy-1-aminoindan.HCl] : > 300 mg/kg
Cc1ccc2c(c1)CCC2N (racemic) [Example 38, (rae)-5-Methyl-1-aminoindan.HCl] : < 100 mg/kg
Cc1cccc2c1C(N)CC2 (racemic) [Example 28, (rac)-7-Methyl-1-aminoindan.HCl] : < 100 mg/kg
NC1Cc2ccccc21 (stereo not shown) [Example 27, 1-Aminobenzocyclobutene.HCl] : > 100 mg/kg
NC(=O)CN[C@@H]1CCc2ccccc21 [Example 1, (R)-N-(2-Aeetamido)-1-aminoindan.HCl] : 198 mg/kg
NC(=O)CN[C@H]1CCc2ccccc21 [Example 2, (S)-N-(2-Acetamido)-1-aminoindan.HCl] : 137 mg/kg
CN[C@H]1CCc2ccccc21 [Example 14, (S)-N-Methyl-1-aminoindan.HCl] : 100 mg/kg
c1ccc2c(c1)CCC2NC1CCc2ccccc21 (racemic) [Example 43, (rac)-M,N-Di-(1-indanyl)amine.HCl] : < 100 mg/kg
COc1ccc2c(c1)C(N)CC2 (racemic) [Example 25, (rac)-6-Methoxy-1-aminoindan.HCl] : > 100 mg/kg
CN(C)C1CCc2ccccc21 (racemic) [Example 15, (rac)-N,N-Dimethyl-1-aminoindan.HCl] : < 100 mg/kg

* * *

Experiment: Neurotoxicity in mice (rotorod ataxia test), i.p.
Details: mouse, in vivo, ip
Method: Neurotoxicity of the claimed agents was also assessed in mice (i.p. administration) by the rotorod ataxia test and/or in rats (p.o. administration) by positional sense test and gait stance test. […] The term quantitating the neurotoxicity is the medial neurological toxic dose (TD50), was determined in the above tests.
recorded endpoint: TD50 (mg/kg)

N[C@H]1CCc2ccccc21 [SAI, (S)-1-aminoindan] : 25
N[C@@H]1CCc2ccccc21 [R-AI, (R)-1-aminoindan] : 71

* * *

Quick list: RATS MES 50 per entry.
Test system: rats
Assay: Maximal electroshock (MES) model in rats, p.o.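 Also: rat MES model gauging antiepileptic efficacy versus generalized and partial seizures after oral dosing.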
Assay type: in vivo
Conditions: rats, p.o.; Table 15
Structures can show the parent of a compound that is named as a salt.
recorded endpoint: RATS MES 50 (mg/kg)

c1ccc(CNC2CCc3ccccc32)cc1 (racemic) [Example 16, (rac)-N-Benzyl-1-aminoindan.HCl] : 50
CN(C)C1CCc2ccccc21 (racemic) [Example 15, (rac)-N,N-Dimethyl-1-aminoindan.HCl] : 50
NC(=O)CN[C@H]1CCc2ccccc21 [Example 2, (S)-N-(2-Acetamido)-1-aminoindan.HCl] : 21
Cc1ccc2c(c1)CCC2N (racemic) [Example 38, (rae)-5-Methyl-1-aminoindan.HCl] : 50
NC(=O)CN[C@@H]1CCc2ccccc21 [Example 1, (R)-N-(2-Aeetamido)-1-aminoindan.HCl] : 50
COc1ccc2c(c1)C(N)CC2 (racemic) [Example 25, (rac)-6-Methoxy-1-aminoindan.HCl] : 50
Cl.NC(=O)CN[C@@H]1CCc2ccccc21 [D, (R)-Indanylglycinamide-HCl salt] : 105

* * *

Test system: mice
Assay: Neurotoxicity in mice (rotorod ataxia test), i.p.
Details: mice, i.p.; Table 16
Description: Neurotoxicity of the claimed agents was also assessed in mice (i.p. administration) by the rotorod ataxia test and/or in rats (p.o. administration) by positional sense test and gait stance test. […] The term quantitating the neurotoxicity is the medial neurological toxic dose (TD50), was determined in the above tests.
Counter-ions that a name gives are not always drawn.
recorded endpoint: MICE TD50 (mg/kg)

N[C@H]1CCc2ccccc21 [SAI, (S)-1-aminoindan] : 25
Cl.NC(=O)CN[C@@H]1CCc2ccccc21 [D, (R)-Indanylglycinamide-HCl salt] : 127
NC(=O)CNC1CCc2ccccc21 (racemic) [Example 3, (rac)-N-(2-Acetamido)-1-aminoindan.HCl] : 126
N[C@@H]1CCc2ccccc21 [R-AI, (R)-1-aminoindan] : 71

* * *

System: mice
Assay: in vivo
Settings: mouse, in vivo, ip
Below, each entry is listed alongside its reported MICE TD50.
recorded endpoint: MICE TD50 (mg/kg)

C#CCNC1CCc2ccc(F)cc21 (stereo not drawn) [L, 6-fluoro-N-propargyl-1-aminoindan] : 188
CC(=O)N[C@@H]1CCc2ccccc21 [Example 18, (R)-N-Acetyl-1-aminoindan] : 75
CC(=O)N[C@H]1CCc2ccccc21 [Example 19, (S)-N-Acetyl-1-aminoindan] : 61
CC(=O)NC1CCc2ccccc21 (racemic) [Example 17, (rac)-N-Acetyl-1-aminoindan] : 90
NC1CCc2ccc(F)cc21 (stereo not drawn) [I, 6-fluoro-1-aminoindan] : 58
N[C@@H]1CCc2ccc(F)cc21 [J, (R)-6-fluoro-1-aminoindan] : 78
CC(=O)N[C@@H]1CCc2ccc(F)cc21 [Example 23, (R)-6-Fluoro-N-acetyl-1-aminoindan] : 155
COc1ccc2c(c1OC)CC[C@H]2NC(C)=O [Example 21, (R)-4,5-Dimethoxy-N-acetyl-1-aminoindan] : 137

* * *

# TD50 listing for each entry below
Assay: Neurotoxicity in rats (positional sense test and gait stance test), p.o.
Conditions: rat, in vivo, po
Structures can show the parent of a compound that is named as a salt.
recorded endpoint: TD50

NC1CCc2ccc(F)cc21 (centres unmarked) [I, 6-fluoro-1-aminoindan] : > 50 mg/kg
CN(C)C1CCc2ccccc21 (racemic) [Example 15, (rac)-N,N-Dimethyl-1-aminoindan.HCl] : > 50 mg/kg
N[C@@H]1CCc2ccc(F)cc21 [J, (R)-6-fluoro-1-aminoindan] : > 50 mg/kg
CC(=O)N[C@@H]1CCc2ccc(F)cc21 [Example 23, (R)-6-Fluoro-N-acetyl-1-aminoindan] : > 500 mg/kg
c1ccc(CNC2CCc3ccccc32)cc1 (racemic) [Example 16, (rac)-N-Benzyl-1-aminoindan.HCl] : > 50 mg/kg
COc1ccc2c(c1)C(NC(C)=O)CC2 (racemic) [Example 26, (rac) 6-methoxy-N-acetyl-1-aminoindan] : > 500 mg/kg
NC1CCc2cccc(O)c21 (racemic) [Example 42, (rac)-7-Hydroxy-1-aminoindan.HCl] : > 50 mg/kg
N[C@@H]1CCc2ccccc21 [R-AI, (R)-1-aminoindan] : 492 mg/kg
CC(=O)N[C@@H]1CCc2ccccc21 [Example 18, (R)-N-Acetyl-1-aminoindan] : > 500 mg/kg
Cc1ccc2c(c1)CCC2N (racemic) [Example 38, (rae)-5-Methyl-1-aminoindan.HCl] : > 50 mg/kg
NC1Cc2ccccc21 (centres unmarked) [Example 27, 1-Aminobenzocyclobutene.HCl] : > 50 mg/kg
O=CNC1CCc2ccccc21 (racemic) [Example 8, (rac)-N-Formyl-1-aminoindan] : > 500 mg/kg
Cc1cccc2c1C(N)CC2 (racemic) [Example 28, (rac)-7-Methyl-1-aminoindan.HCl] : > 50 mg/kg
CN[C@H]1CCc2ccccc21 [Example 14, (S)-N-Methyl-1-aminoindan.HCl] : > 142 mg/kg
NC(=O)CNC1CCc2ccccc21 (racemic) [Example 3, (rac)-N-(2-Acetamido)-1-aminoindan.HCl] : > 50 mg/kg
C[C@H]1Cc2ccccc2[C@H]1N [Example 40, (rac)-cis-2-Methyl-1-aminoindan.HCl] : > 50 mg/kg
NC(=O)CN[C@H]1CCc2ccccc21 [Example 2, (S)-N-(2-Acetamido)-1-aminoindan.HCl] : > 500 mg/kg
